# tested.on: eDHFR-YFP (Escherichia coli, UniProt P0ABQ4)
# experiment.notes: Radioligand binding to eDHFR-YFP expressing cells
# Set-up: species or system E. coli
# particulars: SKOV3 cells; read-out: Kd
# Experimental: Due to the high specific activity of [^211At]At-TMP that limits its working concentration to pM range, [^125I]I-TMP was used for saturation binding studies to determine Bmax. eDHFR-YFP-positive I45 and SKOV3 cells were plated on 96-well plates (Corning #9102) at the density of 25,000 cells/well and 40,000 cells/well, respectively, in complete growth media 24 hours before the assay. […] The radioactivity in each well was measured with a Perkin Elmer Wizard gamma counter. […]
pKd: −log10 of the molar value.
observation.type: pKd

[[record]]
molecule = "COc1cc(Cc2cnc(N)nc2N)cc([125I])c1OC [[^125I]mI-TMP]"
observation_type = "pKd"
observed_result = 9.89

